Listed binders paired with reported normalized maximum binding nm shift
Experimental System: T1, Human VSIG4-L-Fc (human)
T1 construct: also called hVSIG4-L-Fc; hVSIG4-L
T1 sequence (chain, as listed by the source limits assumed): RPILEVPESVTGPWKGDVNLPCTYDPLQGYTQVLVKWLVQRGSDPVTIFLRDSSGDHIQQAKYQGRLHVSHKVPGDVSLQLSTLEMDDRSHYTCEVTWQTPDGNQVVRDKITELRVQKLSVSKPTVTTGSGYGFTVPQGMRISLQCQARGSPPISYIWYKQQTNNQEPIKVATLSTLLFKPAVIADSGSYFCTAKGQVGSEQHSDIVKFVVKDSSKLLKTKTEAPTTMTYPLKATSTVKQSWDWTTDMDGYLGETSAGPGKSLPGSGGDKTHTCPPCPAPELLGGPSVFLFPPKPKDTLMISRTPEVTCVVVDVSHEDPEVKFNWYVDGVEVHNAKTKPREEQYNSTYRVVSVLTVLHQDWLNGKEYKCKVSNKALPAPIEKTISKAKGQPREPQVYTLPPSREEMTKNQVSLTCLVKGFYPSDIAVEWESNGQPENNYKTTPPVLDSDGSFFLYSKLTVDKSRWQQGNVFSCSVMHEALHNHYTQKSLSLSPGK
Assay Overview: BLI binning on hVSIG4-L-Fc, competitor 16E10 first;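 also: normalized to binding of second antibody without first competitor antibody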
Parameter: normalized maximum binding nm shift

1. 15C04 mouse/human chimeric IgG4 (S228P) kappa (antibody, V domains shown) VH: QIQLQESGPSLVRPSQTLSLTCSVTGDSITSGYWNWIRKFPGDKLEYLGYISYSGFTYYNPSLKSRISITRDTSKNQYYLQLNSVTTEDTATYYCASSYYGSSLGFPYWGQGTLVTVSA VL: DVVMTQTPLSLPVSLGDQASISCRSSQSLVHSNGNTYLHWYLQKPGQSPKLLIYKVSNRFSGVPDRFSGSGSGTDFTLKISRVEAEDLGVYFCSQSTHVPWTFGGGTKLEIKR: 0.92 normalized
2. 13H11 mouse/human chimeric IgG4 (S228P) kappa (antibody, V domains shown) VH: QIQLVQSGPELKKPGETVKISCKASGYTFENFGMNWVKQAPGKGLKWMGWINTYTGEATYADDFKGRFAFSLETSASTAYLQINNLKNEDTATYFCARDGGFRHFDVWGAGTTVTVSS VL: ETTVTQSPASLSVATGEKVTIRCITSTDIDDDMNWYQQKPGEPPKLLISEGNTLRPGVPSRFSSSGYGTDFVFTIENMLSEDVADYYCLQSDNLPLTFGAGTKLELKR: 0.95 normalized
3. 16E03 mouse/human chimeric IgG4 (S228P) kappa (antibody, V domains shown) VH: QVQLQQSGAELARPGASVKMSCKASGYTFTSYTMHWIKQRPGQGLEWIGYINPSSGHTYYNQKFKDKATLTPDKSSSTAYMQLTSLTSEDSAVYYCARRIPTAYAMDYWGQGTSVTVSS VL: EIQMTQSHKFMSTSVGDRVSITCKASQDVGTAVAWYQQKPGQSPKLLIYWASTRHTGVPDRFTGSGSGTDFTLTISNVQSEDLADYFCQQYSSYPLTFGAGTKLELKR: 0.37 normalized
4. 16E10 mouse/human chimeric IgG4 (S228P) kappa (antibody, V domains shown) VH: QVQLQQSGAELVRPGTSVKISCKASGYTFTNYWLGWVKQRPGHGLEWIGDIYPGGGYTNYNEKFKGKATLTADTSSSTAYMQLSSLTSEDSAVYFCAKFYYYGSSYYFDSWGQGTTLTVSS VL: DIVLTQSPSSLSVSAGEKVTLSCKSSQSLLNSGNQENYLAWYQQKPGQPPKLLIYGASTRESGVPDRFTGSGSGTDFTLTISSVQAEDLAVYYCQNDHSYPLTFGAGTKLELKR: 0.15 normalized
5. 14C05 mouse/human chimeric IgG4 (S228P) kappa (antibody, V domains shown) VH: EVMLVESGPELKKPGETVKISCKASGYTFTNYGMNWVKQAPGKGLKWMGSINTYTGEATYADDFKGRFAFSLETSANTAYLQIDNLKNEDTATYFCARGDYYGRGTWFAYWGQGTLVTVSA VL: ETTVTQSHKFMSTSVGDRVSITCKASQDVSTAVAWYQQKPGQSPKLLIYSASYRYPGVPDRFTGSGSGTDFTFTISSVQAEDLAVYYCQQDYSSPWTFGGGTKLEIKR: 0.87 normalized
6. 12A08 mouse/human chimeric IgG4 (S228P) kappa (antibody, V domains shown) VH: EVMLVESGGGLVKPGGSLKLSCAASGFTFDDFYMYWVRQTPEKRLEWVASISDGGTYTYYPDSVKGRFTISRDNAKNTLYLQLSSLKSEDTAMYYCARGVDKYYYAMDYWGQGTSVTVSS VL: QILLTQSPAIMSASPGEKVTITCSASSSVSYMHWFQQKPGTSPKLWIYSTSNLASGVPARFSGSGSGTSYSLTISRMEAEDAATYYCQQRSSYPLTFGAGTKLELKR: 0.44 normalized
7. 14D12 mouse/human chimeric IgG4 (S228P) kappa (antibody, V domains shown) VH: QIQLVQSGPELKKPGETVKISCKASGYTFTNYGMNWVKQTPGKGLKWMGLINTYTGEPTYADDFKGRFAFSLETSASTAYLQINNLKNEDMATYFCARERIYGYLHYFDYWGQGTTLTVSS VL: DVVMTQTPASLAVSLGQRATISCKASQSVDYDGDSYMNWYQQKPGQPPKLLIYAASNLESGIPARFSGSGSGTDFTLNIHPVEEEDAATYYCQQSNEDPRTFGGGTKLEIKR: 0.93 normalized
8. 15A06 mouse/human chimeric IgG4 (S228P) kappa (antibody, V domains shown) VH: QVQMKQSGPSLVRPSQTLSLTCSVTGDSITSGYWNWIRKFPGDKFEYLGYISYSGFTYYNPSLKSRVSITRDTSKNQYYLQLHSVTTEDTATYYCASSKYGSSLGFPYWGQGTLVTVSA VL: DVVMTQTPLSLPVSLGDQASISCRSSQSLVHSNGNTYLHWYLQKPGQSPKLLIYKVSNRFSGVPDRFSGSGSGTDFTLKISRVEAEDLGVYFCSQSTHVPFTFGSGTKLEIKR: 0.95 normalized
9. 15C03 mouse/human chimeric IgG4 (S228P) kappa (antibody, V domains shown) VH: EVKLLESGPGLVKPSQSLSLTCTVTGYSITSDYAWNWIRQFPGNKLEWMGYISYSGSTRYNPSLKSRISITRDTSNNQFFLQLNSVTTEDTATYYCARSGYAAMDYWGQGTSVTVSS VL: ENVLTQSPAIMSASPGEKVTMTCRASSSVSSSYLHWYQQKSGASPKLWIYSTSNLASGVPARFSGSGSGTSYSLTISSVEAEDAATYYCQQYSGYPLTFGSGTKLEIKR: 0.93 normalized
10. 12A12 mouse/human chimeric IgG4 (S228P) kappa (antibody, V domains shown) VH: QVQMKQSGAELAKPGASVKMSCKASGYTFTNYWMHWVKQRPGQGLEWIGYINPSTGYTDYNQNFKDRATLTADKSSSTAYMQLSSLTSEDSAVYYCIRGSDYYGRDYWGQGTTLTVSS VL: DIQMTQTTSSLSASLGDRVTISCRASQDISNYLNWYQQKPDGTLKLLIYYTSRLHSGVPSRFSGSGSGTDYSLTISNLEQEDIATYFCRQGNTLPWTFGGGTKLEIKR: 0.62 normalized
